Test system: Sindbis virus TE/5'2J-GFP;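 further: Interferon-defective BHK-21 derivatives, ZAP line overexpressing the rat ZAP N-terminal zinc finger domain fused to Zeocin resistance, GFP scored within live singlet TagRFP+ cells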
method_notes: percent infected (GFP+ in RFP+ ISG-expressing cells); higher = more infection (less antiviral activity)
measurement_setup: experiment: confirmatory screen 3; BHK/HA-Zeo (control)
Below: a set of entries, each annotated with reported percent infected.
The figure you give is taken to be in %; do not add the unit.

INSERT INTO assay_data (biosequence, measured_quantity, readout_value) VALUES
  ('MEKLLCFLVLTSLSHAFGQTDMSRKAFVFPKESDTSYVSLKAPLTKPLKAFTVCLHFYTELSSTRGYSIFSYATKRQDNEILIFWSKDIGYSFTVGGSEILFEVPEVTVAPVHICTSWESASGIVEFWVDGKPRVRKSLKKGYTVGAEASIILGQEQDSFGGNFEGSQSLVGDIGNVNMWDFVLSPDEINTIYLGGPFSPNVLNWRALKYEVQGEVFTKPQLWP [CRP]', 'percent infected', 89.4),
  ('MLTELEKALNSIIDVYHKYSLIKGNFHAVYRDDLKKLLETECPQYIRKKGADVWFKELDINTDGAVNFQEFLILVIKMGVAAHKKSHEESHKE [S100A8]', 'percent infected', 82.1),
  ('MSSENCFVAENSSLHPESGQENDATSPHFSTRHEGSFQVPVLCAVMNVVFITILIIALIALSVGQYNCPGQYTFSMPSDSHVSSCSEDWVGYQRKCYFISTVKRSWTSAQNACSEHGATLAVIDSEKDMNFLKRYAGREEHWVGLKKEPGHPWKWSNGKEFNNWFNVTGSDKCVFLKNTEVSSMECEKNLYWICNKPYK [CD69]', 'percent infected', 91.7),
  ('MLQRGLWPWRTRLLPTPGTWRPARPWPLPPPPQVLRVKLCGNVKYYQSHHYSTVVPPDEITVIYRHGLPLVTLTLPSRKERCQFVVKPMLSTVGSFLQDLQNEDKGIKTAAIFTADGNMISASTLMDILLMNDFKLVINKIAYDVQCPKREKPSNEHTAEMEHMKSLVHRLFTILHLEESQKKREHHLLEKIDHLKEQLQPLEQVKAGIEAHSEAKTSGLLWAGLALLSIQGGALAWLTWWVYSWDIMEPVTYFITFANSMVFFAYFIVTRQDYTYSAVKSRQFLQFFHKKSKQQHFDVQQYNKLKEDLAKAKESLKQARHSLCLQMQVEELNEKN [CCDC109B]', 'percent infected', 95.1),
  ('MMAQSKANGSHYALTAIGLGMLVLGVIMAMWNLVPGFSAAEKPTAQGSNKTEVGGGILKSKTFSVAYVLVGAGVMLLLLSICLSIRDKRKQRQGEDLAHVQHPTGAGPHAQEEDSQEEEEEDEEAASRYYVPSYEEVMNTNYSEARGEEQNPRLSISLPSYESLTGLDETTPTSTRADVEASPGNPPDRQNSKLAKRLKPLKVRRIKSEKLHLKDFRINLPDKNVPPPSIEPLTPPPQYDEVQEKAPDTRPPD [TMEM51]', 'percent infected', 93.3);

Please look at the following sequence next.
Item: MRSARSTALNRGEQRAVRYYSHMKLNMAEEEDYMSDSFINVQEDIRPGLPMLRQIREARRKEEKQQEANLKNRQKSLKEEEQERRDIGLKNALGCENKGFALLQKMGYKSGQALGKSGGGIVEPIPLNIKTGKSGIGHEASLKRKAEEKLESYRKKIHMKNQAEEKAAEQFRMRLKNKQDEMKLEGDLRRSQRACQQLDVQKNIQVPREAWYWLRLEEETEEDEEEKEQDEDEYKSEDLSVLEKLQILTSYLREEHLYCIWCGTAYEDKEDLSSNCPGPTSADHD [CCDC75] | percent infected: 94.5
